Target or system Non-receptor tyrosine-protein kinase TYK2 (Homo sapiens): recorded Kd listed per item. Also: in the data inactive means no Kd found up to 30 µM.
Active and inactive are the calls of the source.

querySmiles	Kd
Cc1ccc(C(=O)Nc2ccc(Oc3cc4cnn(C)c4cc3-c3cn[nH]c3)c(F)c2)c(=O)n1-c1ccc(F)cc1	> 30 µM (inactive)
CCN1CCN(Cc2ccc(Nc3ncc(F)c(-c4cc(F)c5nc(C)n(C(C)C)c5c4)n3)nc2)CC1	> 30 µM (inactive)
CNC(=O)c1cccc(-c2ccc3c(N4CCOC[C@@H]4C)nc(N4CCOC[C@@H]4C)nc3n2)c1	> 30 µM (inactive)

[ask] Any idea what its Kd is? The compound is Cc1c(NC(=O)OC[C@@H]2COCCN2)cn2ncnc(Nc3ccc4c(cnn4Cc4cccc(F)c4)c3)c12
[reply] > 30 µM (inactive)

[ask] Consider next the compound C[C@@H]1COC(Nc2ccc3ncnc(Nc4ccc(OCc5nccs5)c(Cl)c4)c3c2)=N1 in the same way.
[reply] > 30 µM (inactive)

[ask] Consider next the compound FC(F)(F)c1ccc(CNc2ccc(Cc3c[nH]c4ncc(Cl)cc34)cn2)cn1 in the same way.
[reply] > 30 µM (inactive)

[ask] Consider next the compound Cc1cc(C(=O)Nc2cc(Oc3ccc4nc(NC(=O)C5CC5)cn4n3)ccc2C)n(C)n1 in the same way.
[reply] > 30 µM (inactive)

[ask] Consider next the compound COc1cccc2cc(-c3nc([C@H]4CC[C@H](C(=O)O)CC4)n4ncnc(N)c34)[nH]c12 in the same way.
[reply] > 30 µM (inactive)
